TEST_TARGET: recombinant Mcl-1 (residues 172-327) (Homo sapiens (Human), UniProt Q07820)
Sequence (Q07820 172-327): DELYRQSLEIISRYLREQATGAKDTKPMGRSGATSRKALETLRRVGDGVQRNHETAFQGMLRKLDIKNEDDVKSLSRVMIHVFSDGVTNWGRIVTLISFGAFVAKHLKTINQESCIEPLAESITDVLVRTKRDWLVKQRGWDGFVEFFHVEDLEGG
ASSAY_SUMMARY: Bak peptide fluorescence polarization anisotropy competition assay, Mcl-1
Assay type: binding
TEST_CONDITIONS: read-out: Ki for inhibition of Mcl-1
pKi: −log10 of the molar value.
# pKi listing for each entry below

Before answering, review these 3 worked examples.
SMILES_STRUCTURE	MEASURED_METRIC	RESULT
O=C(O)c1oc2ccccc2c1CCc1cccc2ccccc12	pKi	4.30 to 5.00
Cc1cc(OCCCc2c(C(=O)NS(=O)(=O)CCN3C(=O)c4ccccc4C3=O)[nH]c3ccccc23)cc(C)c1Cl	pKi	6.00 to 6.30
CS(=O)(=O)NC(=O)c1[nH]c2ccccc2c1CCCOc1ccc2ccccc2c1	pKi	5.00 to 6.00

stdin: Given `COc1ccccc1-c1cccc2c(CCCOc3cc(C)c(Cl)c(C)c3)c(C(=O)NS(C)(=O)=O)[nH]c12` , state its recorded pKi.
stdout: 6.52 to 7.00

stdin: Would you kindly repeat that for `Cc1cc(OCCCc2c(C(=O)NS(=O)(=O)CCNC(=O)Cc3ccc(Br)cc3)[nH]c3ccccc23)cc(C)c1Cl` ?
stdout: 6.30 to 6.52

stdin: Would you kindly repeat that for `CS(=O)(=O)NC(=O)c1sc2ccccc2c1CCCOc1cccc2ccccc12` ?
stdout: 5.00 to 6.00

stdin: Would you kindly repeat that for `Cc1cc(OCCCc2c(C(=O)NS(C)(=O)=O)n(Cc3cccnc3)c3cc(Cl)ccc23)cc(C)c1Cl` ?
stdout: 6.30 to 6.52

stdin: Would you kindly repeat that for `Cc1cc(OCCCc2c(C(=O)NS(=O)(=O)CCNC(=O)c3nccn3Cc3ccccc3)[nH]c3ccccc23)cc(C)c1Cl` ?
stdout: 6.00 to 6.30

stdin: Would you kindly repeat that for `Cc1cc(OCCCc2c(C(=O)NS(=O)(=O)CCNC(=O)C(F)(F)F)[nH]c3cc(Cl)ccc23)cc(C)c1Cl` ?
stdout: 6.52 to 7.00

stdin: Would you kindly repeat that for `Cc1cc(OCCCc2c(C(=O)NS(=O)(=O)c3ccccc3)[nH]c3c(-c4ccsc4)cccc23)cc(C)c1Cl` ?
stdout: 6.52 to 7.00

stdin: Would you kindly repeat that for `Cc1cc(OCCCc2c(C(=O)NS(=O)(=O)CCCNC3CCCCC3)[nH]c3ccccc23)cc(C)c1Cl` ?
stdout: 5.00 to 6.00

stdin: Would you kindly repeat that for `Cc1cc(OCCCc2c(C(=O)NS(=O)(=O)CCNC(=O)c3ccc4[nH]ccc4c3)[nH]c3ccccc23)cc(C)c1Cl` ?
stdout: 6.52 to 7.00

stdin: Would you kindly repeat that for `Cc1ccc2c(CCCOc3cccc4ccccc34)c(C(=O)O)sc2c1` ?
stdout: 6.00 to 6.30

stdin: Would you kindly repeat that for `O=C(O)c1oc2ccccc2c1CCCc1cccc2ccccc12` ?
stdout: 4.30 to 5.00

stdin: Would you kindly repeat that for `O=C(CCc1ccccc1)NCCS(=O)(=O)NC(=O)c1[nH]c2cc(Cl)ccc2c1CCCOc1cccc2ccccc12` ?
stdout: 6.30 to 6.52

###

TEST_TARGET: recombinant Mcl-1 (residues 172-327) (Homo sapiens (Human), UniProt Q07820)
ASSAY_SUMMARY: Bak peptide fluorescence polarization anisotropy competition assay, Mcl-1
Assay type: binding
TEST_CONDITIONS: read-out: Ki for inhibition of Mcl-1
pKi: −log10 of the molar value.
# pKi listing for each entry below

Before answering, review these 3 worked examples.
COMPOUND	pKi
CS(=O)(=O)NC(=O)c1[nH]c2cccc(C(F)(F)F)c2c1CCCOc1cccc2ccccc12 [Example 81]	6.30 to 6.52
CS(=O)(=O)NC(=O)c1[nH]c2ccccc2c1CCCOc1cccc2ccccc12 [Example 19]	5.00 to 6.00
Cc1cc(OCCCc2c(C(=O)NS(=O)(=O)c3cccc(C(=O)NC4CCOCC4)c3)[nH]c3ccccc23)cc(C)c1Cl [Example 202]	6.52 to 7.00

stdin: Given COCc1nn(C)c(C)c1-c1cccc2c(CCCOc3cc(C)c(Cl)c(C)c3)c(C(=O)NS(=O)(=O)c3ccccc3)n(Cc3cccnc3)c12 [Example 128] , state its recorded pKi.
stdout: 6.52 to 7.00

stdin: Would you kindly repeat that for CS(=O)(=O)NC(=O)c1[nH]c2ccccc2c1CCCOc1cccc2c1CCC2 [Example 74] ?
stdout: 5.00 to 6.00

stdin: Would you kindly repeat that for CS(=O)(=O)NC(=O)c1[nH]c2ccc(Cl)cc2c1CCCOc1cccc2ccccc12 [Example 111] ?
stdout: 5.00 to 6.00

stdin: Would you kindly repeat that for Cc1cccc(S(=O)(=O)NC(=O)c2[nH]c3cc(Cl)ccc3c2CCCOc2cc(C)c(Cl)c(C)c2)c1 [Example 217] ?
stdout: 6.52 to 7.00

###

TEST_TARGET: Bcl-xL (residues 1-209, loop 45-86 deleted) (Homo sapiens (Human), UniProt Q07817, DEL45-86)
Sequence (Q07817 other isoform, or with tags, fused parts or gaps del 45-86): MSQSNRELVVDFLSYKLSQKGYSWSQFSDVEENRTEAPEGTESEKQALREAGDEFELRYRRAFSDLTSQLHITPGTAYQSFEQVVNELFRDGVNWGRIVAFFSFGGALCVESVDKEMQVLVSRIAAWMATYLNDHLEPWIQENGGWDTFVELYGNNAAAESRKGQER
ASSAY_SUMMARY: Bak peptide fluorescence polarization anisotropy competition assay, Bcl-xL selectivity
TEST_CONDITIONS: Table 3; FITC-Bak peptide 10 nM, Bcl-xL 4 nM
MEASURED_METRIC: pKi
# log scale: pKi equals minus log10 of the concentration in mol/L

stdin: Given `Cc1cc(OCCCc2c(C(=O)O)sc3cc(Cl)ccc23)cc(C)c1Cl` , state its recorded pKi.
stdout: 5.62

###

# Ki listing for each entry below
TEST_TARGET: recombinant Mcl-1 (residues 172-327) (Homo sapiens (Human))
ASSAY_SUMMARY: Bak peptide fluorescence polarization anisotropy competition assay, Mcl-1
Format: binding
TEST_CONDITIONS: read-out: Ki for inhibition of Mcl-1

Before answering, review these 2 worked examples.
SMILES_STRUCTURE	MEASURED_METRIC	RESULT
Cc1cc(OCCCc2c(C(=O)NS(=O)(=O)CCNS(=O)(=O)C3CCCCC3)[nH]c3ccccc23)cc(C)c1Cl	Ki	101 to 299 nM
Cc1cc(OCCCc2c(C(=O)NS(=O)(=O)CCNC(=O)c3cnn(Cc4ccccc4)c3)[nH]c3ccccc23)cc(C)c1Cl	Ki	1000 to 9990 nM

stdin: Record lookup: for recombinant Mcl-1 (residues 172-327) (Homo sapiens (Human)), what Ki belongs to `Cc1cc(OCCCc2c(C(=O)NS(C)(=O)=O)[nH]c3cc(C(F)(F)F)ccc23)cc(C)c1Cl` ?
stdout: 301 to 500 nM

stdin: Would you kindly repeat that for `COCc1nn(C)c(C)c1-c1cccc2c(CCCOc3cc(C)c(Cl)c(C)c3)c(C(=O)NS(=O)(=O)c3ccccc3)n(C)c12` ?
stdout: 101 to 299 nM

stdin: Would you kindly repeat that for `CS(=O)(=O)NC(=O)c1[nH]c2cc(C(F)(F)F)ccc2c1CCCOc1cccc2ccccc12` ?
stdout: 301 to 500 nM

stdin: Would you kindly repeat that for `Cc1cc(OCCCc2c(C(=O)NS(=O)(=O)c3ccc(-c4ccccc4)cc3)[nH]c3cc(Cl)ccc23)cc(C)c1Cl` ?
stdout: 301 to 500 nM

###

Tested on: MDA-MB-468
ASSAY_SUMMARY: Cellular proliferation, CellTiter-Glo, MDA-MB-468
Format: cell-based
TEST_CONDITIONS: Homo sapiens, MDA-MB-468, 72 h, read-out: IC50 on cellular proliferation, MDA-MB-468
Protocol: To evaluate compound effect on cellular proliferation, cells were plated at 1,000 cells/well in 96-well tissue culture plates in a total volume of 90 uL medium supplemented with 10% FBS (Sigma, Saint Louis, Mo.). […] After 72 hours, cell number was measured using the CellTiter-Glo Luminescent assay according to manufacturer's recommendations (Promega, Madison, Wis.). […] IC50 values were determined by plotting growth against compound concentration in a 4-parameter logisitic model in XLFit.
pIC50: −log10 of the molar value.
MEASURED_METRIC: pIC50

COMPOUND	pIC50
Cc1cc(OCCCc2c(C(=O)NS(=O)(=O)CCNC(=O)c3cccn3Cc3ccccc3)[nH]c3c(-c4c(CO)nn(C)c4C)cccc23)cc(C)c1Cl [Example 207]	4.34

a = Cc1cc(OCCCc2c(C(=O)NS(=O)(=O)CCNC(=O)c3cccn3C)[nH]c3c(-c4c(CO)nn(C)c4C)cccc23)cc(C)c1Cl [Example 206]
b = Cc1cc(OCCCc2c(C(=O)NS(=O)(=O)c3ccccc3)[nH]c3c(-c4cccnc4C)cccc23)cc(C)c1Cl [Example 97]
stdin: Please indicate which item has the smaller measured pIC50: a versus b Output the label that corresponds to your choice.
stdout: a
(a: 4.30, b: 4.86)

###

TEST_TARGET: recombinant Mcl-1 (residues 172-327) (Homo sapiens (Human))
ASSAY_SUMMARY: Bak peptide fluorescence polarization anisotropy competition assay, Mcl-1
Format: binding
TEST_CONDITIONS: read-out: Ki for inhibition of Mcl-1
MEASURED_METRIC: Ki

Before answering, review these 2 worked examples.
SMILES_STRUCTURE	Ki
O=C(O)c1sc2ccccc2c1CCc1cccc2ccccc12	1000 to 9990 nM
Cc1cc(OCCCc2c(C(=O)NS(=O)(=O)c3ccccc3)[nH]c3c(-c4ccco4)cccc23)cc(C)c1Cl	101 to 299 nM

Moving on to another molecule below.
stdin: Given `Cc1cc(OCCCc2c(C(=O)NS(C)(=O)=O)[nH]c3cc(Cl)ccc23)ccc1Cl` , state its recorded Ki.
stdout: 301 to 500 nM
